# Measurement target: recombinant human CL receptor/RAMP1 (Homo sapiens, UniProt O60894+Q16602)
# Construct: membranes used
# Sequence (Q16602 23-461): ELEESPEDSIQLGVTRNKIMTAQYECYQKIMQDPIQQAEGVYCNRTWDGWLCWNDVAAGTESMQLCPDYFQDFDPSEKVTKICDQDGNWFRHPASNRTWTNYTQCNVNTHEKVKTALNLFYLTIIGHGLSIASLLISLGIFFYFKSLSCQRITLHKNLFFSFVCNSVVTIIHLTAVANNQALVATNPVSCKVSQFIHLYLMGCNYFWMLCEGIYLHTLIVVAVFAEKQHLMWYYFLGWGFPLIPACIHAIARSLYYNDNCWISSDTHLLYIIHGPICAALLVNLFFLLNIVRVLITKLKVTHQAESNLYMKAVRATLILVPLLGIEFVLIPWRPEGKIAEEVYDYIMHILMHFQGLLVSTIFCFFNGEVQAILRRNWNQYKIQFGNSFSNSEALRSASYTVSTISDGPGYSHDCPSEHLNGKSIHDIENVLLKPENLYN
# Sequence (O60894 27-148): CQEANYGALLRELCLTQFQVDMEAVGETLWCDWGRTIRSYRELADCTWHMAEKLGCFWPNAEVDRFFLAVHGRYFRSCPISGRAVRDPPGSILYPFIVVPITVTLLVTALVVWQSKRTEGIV
# Procedure summary: Recombinant receptor binding assay (125I-hCGRP)
# Condition info: membranes of HEK 293 cells expressing human CL receptor/RAMP1, 10 pM 125I-hCGRP, 3 h at room temperature
Below, each of the compounds is paired with its reported log10 of Ki value.
Annotation: log10 of Ki, nM basis.

[
  {
    "Compound structure string": "O=C(N[C@H]1C[C@@H](c2cccc(F)c2F)Cn2c(CC(F)(F)F)nnc21)c1ccc2c(c1)C[C@@]1(C2)C(=O)Nc2ncccc21",
    "Recorded metric": "log10 of Ki",
    "Readout value": -1.15
  },
  {
    "Compound structure string": "O=C(N[C@H]1C[C@@H](c2cccc(F)c2F)Cn2c(CC(F)(F)F)cnc21)c1ccc2c(c1)C[C@@]1(C2)C(=O)Nc2ncccc21",
    "Recorded metric": "log10 of Ki",
    "Readout value": -1.15
  },
  {
    "Compound structure string": "C[C@@H]1[C@H](c2ccccc2)C[C@H](NC(=O)c2ccc3c(c2)C[C@@]2(C3)C(=O)Nc3ncccc32)c2nnc(C3(C(F)(F)F)CC3)n21",
    "Recorded metric": "log10 of Ki",
    "Readout value": -0.41
  },
  {
    "Compound structure string": "COC(C)(C)c1cnc2n1C[C@H](c1cccc(F)c1F)C[C@@H]2NC(=O)c1ccc2c(c1)C[C@@]1(C2)C(=O)Nc2ncccc21",
    "Recorded metric": "log10 of Ki",
    "Readout value": -1.52
  },
  {
    "Compound structure string": "C[C@@H]1[C@H](c2ccccc2)C[C@H](NC(=O)c2ccc3c(c2)C[C@@]2(C3)C(=O)Nc3ncncc32)c2ncc(C(C)(C)O)n21",
    "Recorded metric": "log10 of Ki",
    "Readout value": -0.72
  }
]

Let us examine a further case.
### Prompt Record request: log10 of Ki value, item C[C@@H]1[C@H](c2ccccc2)C[C@H](NC(=O)c2ccc3c(c2)C[C@@]2(C3)C(=O)Nc3ncccc32)c2ncc(C(C)(C)O)n21
### Response -0.57

Source listed as patent US8895572B2.
